Tested on: SR cells (NPM-ALK, human anaplastic large cell lymphoma cells)
Assay: Proliferation inhibition (IC50) in SR cells, CCK8 (WST) reagent
Type: cell-based
Conditions: 72 h, read-out: IC50 (half inhibitory concentration), Alectinib series in lymphoma cell lines, SR cells, WST reagent, 72 hours
Quick rule for you: IC50 under 3 nM gets fulfilled, anything else gets not fulfilled.

{"columns": ["compound", "group"],
 "data": [
  ["CCc1cc2c(cc1N1CCC(N3CCN(C(=O)CCCCCCNc4cccc5c4CN(C4CCC(=O)NC4=O)C5=O)CC3)CC1)C(C)(C)c1[nH]c3cc(C#N)ccc3c1C2=O (stereo not shown)", "not fulfilled"],
  ["CCc1cc2c(cc1N1CCC(N3CCN(C(=O)CCCNc4cccc5c4CN(C4CCC(=O)NC4=O)C5=O)CC3)CC1)C(C)(C)c1[nH]c3cc(C#N)ccc3c1C2=O (stereo not shown)", "fulfilled"],
  ["CCc1cc2c(cc1N1CCC(N3CCN(CCCC#Cc4cccc5c4CN(C4CCC(=O)NC4=O)C5=O)CC3)CC1)C(C)(C)c1[nH]c3cc(C#N)ccc3c1C2=O (stereo not shown)", "fulfilled"],
  ["CCc1cc2c(cc1N1CCN(CCCCCc3cccc4c3CN(C3CCC(=O)NC3=O)C4=O)CC1)C(C)(C)c1[nH]c3cc(C#N)ccc3c1C2=O (stereo not shown)", "not fulfilled"],
  ["CCc1cc2c(cc1N1CCC(NC(=O)CCCCNc3cccc4c3CN(C3CCC(=O)NC3=O)C4=O)CC1)C(C)(C)c1[nH]c3cc(C#N)ccc3c1C2=O (stereo not shown)", "not fulfilled"],
  ["CCc1cc2c(cc1N1CCC(N3CCN(CCCCCC#Cc4cccc5c4CN(C4CCC(=O)NC4=O)C5=O)CC3)CC1)C(C)(C)c1[nH]c3cc(C#N)ccc3c1C2=O (stereo not shown)", "not fulfilled"],
  ["CCc1cc2c(cc1N1CCC(N3CCN(CCCCCNc4cccc5c4C(=O)N(C4CCC(=O)NC4=O)C5=O)CC3)CC1)C(C)(C)c1[nH]c3cc(C#N)ccc3c1C2=O (stereo not shown)", "not fulfilled"]
]}

----------
The compounds listed here are annotated with their DC50.
Molecular target: ALK protein (Homo sapiens, UniProt Q9UM73)
Construct: We studied the total ALK protein in the anaplastic large cell lymphoma cell line SR; host or cells: SR cells (human anaplastic large cell lymphoma); the other entry of the earlier key: NPM1 (P06748, Nucleophosmin)
Sequence (Q9UM73 with tags, fused parts or gaps): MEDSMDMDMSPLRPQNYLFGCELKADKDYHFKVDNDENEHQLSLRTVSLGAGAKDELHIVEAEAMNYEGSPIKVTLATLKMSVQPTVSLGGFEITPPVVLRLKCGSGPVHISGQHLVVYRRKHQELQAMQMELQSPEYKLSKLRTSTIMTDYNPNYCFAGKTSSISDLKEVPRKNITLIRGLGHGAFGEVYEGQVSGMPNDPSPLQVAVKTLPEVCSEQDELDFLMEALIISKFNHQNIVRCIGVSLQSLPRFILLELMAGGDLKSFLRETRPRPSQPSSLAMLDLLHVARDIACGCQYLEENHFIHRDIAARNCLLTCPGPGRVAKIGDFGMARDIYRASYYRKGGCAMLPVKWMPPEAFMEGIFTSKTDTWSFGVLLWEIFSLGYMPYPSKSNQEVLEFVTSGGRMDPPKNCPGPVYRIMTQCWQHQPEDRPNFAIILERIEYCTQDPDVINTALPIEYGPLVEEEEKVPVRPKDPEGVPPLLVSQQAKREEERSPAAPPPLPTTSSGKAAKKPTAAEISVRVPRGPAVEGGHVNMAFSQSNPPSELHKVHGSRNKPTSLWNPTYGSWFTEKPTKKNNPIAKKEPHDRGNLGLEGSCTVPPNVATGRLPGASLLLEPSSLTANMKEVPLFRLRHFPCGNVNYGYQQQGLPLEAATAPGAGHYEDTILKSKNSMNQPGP
Test: Western blot of ALK protein degradation in SR cells
Type: cell-based
Settings: 16 hours, concentration range at half of the gray value, read-out: DC50 (half degradation concentration), Brigatinib series in lymphoma cell lines

{"columns": ["compound", "DC50"],
 "data": [
  ["COc1cc(N2CCC(N3CCN(CCSc4cccc5c4CN(C4CCC(=O)NC4=O)C5=O)CC3)CC2)ccc1Nc1ncc(Cl)c(Nc2ccccc2P(C)(C)=O)n1 (stereo not drawn)", "0.5 to 5 nM"],
  ["COc1cc(N2CCC(N3CCN(CCCCCCC#Cc4cccc5c4CN(C4CCC(=O)NC4=O)C5=O)CC3)CC2)ccc1Nc1ncc(Cl)c(Nc2ccccc2P(C)(C)=O)n1 (stereo not drawn)", "0.5 to 5 nM"],
  ["COc1cc(N2CCC(N3CCN(CCCCC#Cc4cccc5c4CN(C4CCC(=O)NC4=O)C5=O)CC3)CC2)ccc1Nc1ncc(Cl)c(Nc2ccccc2P(C)(C)=O)n1 (stereo not drawn)", "0.05 to 0.5 nM"],
  ["COc1cc(N2CCC(N3CCN(Cc4ccc(CSc5cccc6c5CN(C5CCC(=O)NC5=O)C6=O)cc4)CC3)CC2)ccc1Nc1ncc(Cl)c(Nc2ccccc2P(C)(C)=O)n1 (stereo not drawn)", "0.05 to 0.5 nM"],
  ["COc1cc(N2CCC(N3CCN(CCCCCc4cccc5c4CN(C4CCC(=O)NC4=O)C5=O)CC3)CC2)ccc1Nc1ncc(Cl)c(Nc2ccccc2P(C)(C)=O)n1 (stereo not drawn)", "0.05 to 0.5 nM"],
  ["COc1cc(N2CCC(N3CCN(CCCCCCCC#Cc4cccc5c4CN(C4CCC(=O)NC4=O)C5=O)CC3)CC2)ccc1Nc1ncc(Cl)c(Nc2ccccc2P(C)(C)=O)n1 (stereo not drawn)", "0.05 to 0.5 nM"]
]}

----------
System: SR cells (NPM-ALK, human anaplastic large cell lymphoma cells)
Assay: Proliferation inhibition (IC50) in SR cells, CCK8 (WST) reagent
Assay type: cell-based
Conditions: 72 h, read-out: IC50 (half inhibitory concentration), Alectinib series in lymphoma cell lines, SR cells, WST reagent, 72 hours

{"columns": ["compound", "unit.name", "IC50"],
 "data": [
  ["CCc1cc2c(cc1N1CCC(N3CCN(C(=O)CCCCNc4cccc5c4CN(C4CCC(=O)NC4=O)C5=O)CC3)CC1)C(C)(C)c1[nH]c3cc(C#N)ccc3c1C2=O (centres unmarked) [SIAIS262093]", "nM", 2.65],
  ["CCc1cc2c(cc1N1CCC(N)CC1)C(C)(C)c1[nH]c3cc(C#N)ccc3c1C2=O [Alectinib derivative B (SIAIS184193)]", "nM", 9.1],
  ["CCc1cc2c(cc1N1CCC(N3CCN(CCCCSc4cccc5c4CN(C4CCC(=O)NC4=O)C5=O)CC3)CC1)C(C)(C)c1[nH]c3cc(C#N)ccc3c1C2=O (centres unmarked) [SIAIS293060]", "nM", 0.1],
  ["CCc1cc2c(cc1N1CCC(N3CCN(CCCCCc4cccc5c4CN(C4CCC(=O)NC4=O)C5=O)CC3)CC1)C(C)(C)c1[nH]c3cc(C#N)ccc3c1C2=O (centres unmarked) [SIAIS350083]", "nM", 1.1],
  ["CCc1cc2c(cc1N1CCC(N3CCN(CCCCCCNc4cccc5c4C(=O)N(C4CCC(=O)NC4=O)C5=O)CC3)CC1)C(C)(C)c1[nH]c3cc(C#N)ccc3c1C2=O (centres unmarked) [SIAIS293009]", "nM", 15.1],
  ["CCc1cc2c(cc1N1CCC(N3CCNCC3)CC1)C(C)(C)c1[nH]c3cc(C#N)ccc3c1C2=O [Alectinib derivative C (SIAIS184192)]", "nM", 10.1],
  ["CCc1cc2c(cc1N1CCC(N3CCN(CCCCC#Cc4cccc5c4CN(C4CCC(=O)NC4=O)C5=O)CC3)CC1)C(C)(C)c1[nH]c3cc(C#N)ccc3c1C2=O (centres unmarked) [SIAIS293002]", "nM", 2.9],
  ["CCc1cc2c(cc1N1CCC(N3CCN(CCCCCCCC#Cc4cccc5c4CN(C4CCC(=O)NC4=O)C5=O)CC3)CC1)C(C)(C)c1[nH]c3cc(C#N)ccc3c1C2=O (centres unmarked) [SIAIS293004]", "nM", 9.5],
  ["CCc1cc2c(cc1N1CCC(N3CCN(CCCCc4cccc5c4CN(C4CCC(=O)NC4=O)C5=O)CC3)CC1)C(C)(C)c1[nH]c3cc(C#N)ccc3c1C2=O (centres unmarked) [SIAIS293005]", "nM", 1.9],
  ["CCc1cc2c(cc1N1CCC(N3CCN(C(=O)COc4cccc5c4C(=O)N(C4CCC(=O)NC4=O)C5=O)CC3)CC1)C(C)(C)c1[nH]c3cc(C#N)ccc3c1C2=O (centres unmarked) [SIAIS293010]", "nM", 2]
]}

----------
Tested on: SR cells (NPM-ALK, human anaplastic large cell lymphoma cells)
Test: Proliferation inhibition (IC50) in SR cells, CCK8 (WST) reagent
Format: cell-based
Conditions: 72 h, SR cells, WST reagent, 72 hours, read-out: IC50 (half inhibitory concentration), Brigatinib series in lymphoma cell lines
Description: The ALK gene rearrangement positive cell line used was SR cells (NPM-ALK, human anaplastic large cell lymphoma cells). MDA-MB231 was a triple-negative breast cancer cell. Both SR cells and MDA-MB231 cells were purchased from ATCC. The tumor cell line used was daily cultured in a 37° C. incubator containing 5% CO2. […] The IC50 of the compound of the present disclosure was determined using Promega's Cell Titer Blue, Cell Titer GLO or commercially available WST reagents. […]
value.type: IC50 (nM)

{"columns": ["compound", "value.type", "unit.name", "quantitative.result"],
 "data": [
  ["COc1cc(N2CCC(N3CCN(C(=O)COCCOCCOCCOCCOCCNc4cccc5c4CN(C4CCC(=O)NC4=O)C5=O)CC3)CC2)ccc1Nc1ncc(Cl)c(Nc2ccccc2P(C)(C)=O)n1 (centres unmarked)", "IC50", "nM", 102],
  ["COc1cc(N2CCC(N3CCN(C)CC3)CC2)ccc1Nc1ncc(Cl)c(Nc2ccccc2P(C)(C)=O)n1 [Brigatinib, reference compound]", "IC50", "nM", 6.9],
  ["COc1cc(N2CCC(N3CCN(CCCCCCC#Cc4cccc5c4CN(C4CCC(=O)NC4=O)C5=O)CC3)CC2)ccc1Nc1ncc(Cl)c(Nc2ccccc2P(C)(C)=O)n1 (centres unmarked)", "IC50", "nM", 1.5],
  ["COc1cc(N2CCC(N3CCN(C(=O)COCCOCCNc4cccc5c4CN(C4CCC(=O)NC4=O)C5=O)CC3)CC2)ccc1Nc1ncc(Cl)c(Nc2ccccc2P(C)(C)=O)n1 (centres unmarked)", "IC50", "nM", 22]
]}
